- Target: Torsin-1A-interacting protein 2 (Homo sapiens) (UniProt Q8NFQ8)
- Sequence (Q8NFQ8 whole entry, looked up): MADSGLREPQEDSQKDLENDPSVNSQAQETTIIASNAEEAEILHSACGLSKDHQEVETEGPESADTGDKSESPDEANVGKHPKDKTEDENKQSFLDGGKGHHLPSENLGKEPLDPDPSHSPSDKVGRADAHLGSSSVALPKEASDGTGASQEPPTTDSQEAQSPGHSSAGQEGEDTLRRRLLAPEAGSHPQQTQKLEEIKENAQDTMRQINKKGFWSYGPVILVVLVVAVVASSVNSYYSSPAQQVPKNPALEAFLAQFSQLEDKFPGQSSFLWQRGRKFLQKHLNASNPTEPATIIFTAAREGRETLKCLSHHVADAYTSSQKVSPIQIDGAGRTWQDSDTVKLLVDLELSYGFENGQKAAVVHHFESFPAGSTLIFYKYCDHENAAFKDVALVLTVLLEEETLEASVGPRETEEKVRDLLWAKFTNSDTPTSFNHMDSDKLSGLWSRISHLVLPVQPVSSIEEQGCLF
- Test method notes: LULL1 binders on small-molecule microarray, primary screen, cell lysate, human LULL1 lysate, 635/667 nm fluorescence (AID 1092);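 also: probe is lysate of COS7 cells overexpressing human LULL1; score merges per-feature 667 nm fluorescence with signal-to-noise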
- Experimental conditions: hLULL1 lysate binding, 635 nm fluorescence, higher = more signal
Reported composite z-score by item:
// no unit string in output, number only

Guide cases for composite z-score, answers given:
- Molecule: "O=C1NC(=O)C2C1C=CC(C(O)C(c1ccccc1)c1ccccc1)N2Nc1ccc(Cl)cc1Cl (stereo not drawn)"
  Metric name: "composite z-score"
  Value: 2.86
- Molecule: "CN1C(=O)C2C=CC(C(O)C3=C[C@H]4C[C@@H](C3)C4(C)C)N(Nc3ccccc3)C2C1=O (stereo partly drawn)"
  Metric name: "composite z-score"
  Value: 2.46
- Molecule: "CC(=O)N1Cc2ccccc2C[C@@]2(COC(c3ccc(OCCCO)cc3)=N2)C1=O"
  Metric name: "composite z-score"
  Value: 2.25
- Molecule: "CN(C)C(=O)[C@]1(Cc2ccccc2CN=[N+]=[N-])N=C(c2ccc(OCCCO)cc2)O[C@@H]1c1ccccc1CN=[N+]=[N-]"
  Metric name: "composite z-score"
  Value: 3.59

Task: Looking for the measured composite z-score of O=C1c2ccccc2[C@@]2(Cc3ccccc3N(CC(F)(F)F)C2=O)[C@H](c2ccc(CO)cc2)N1Cc1ccccc1Cl , can you help?
Result: -0.0577

Task: Name the recorded composite z-score for COCCCNC(=O)[C@@]1(Cc2ccccc2)N=C(c2ccc(OCCCO)cc2)O[C@H]1c1ccccc1 .
Result: 3.36

Task: What value of composite z-score has been recorded for this entry: C#CCN(CC=C(C)C)[C@H](CO)c1ccccc1
Result: 0.0196

Task: Item CC(C)C[C@@H]1NC(=O)[C@H]2C[C@@H](C(=O)NCCCCCCN(C)C)[C@@H](c3ccc(O)cc3)N2C1=O has what recorded composite z-score?
Result: 3.1
